Test: Test D: Acute toxicity
Settings: mouse, in vivo, 1000 mg/kg; 1,000 mg/kg oral, 0.5% CMC suspension, ICR male mice, after seven days
Protocol: A 0.5% CMC suspension of a test compound was orally administered to ICR male mice (group of three mice). The acute toxicity was determined based on the mortality after seven days. With compound I 5-4 and I-5-6 of the present ivnention, the mortality was 0% even when they were orally administered in an amount of 1,000 mg/kg, respectively.
Items are presented alongside their recorded mortality at 168 h.
Please reply with the bare figure in % and do not write the unit itself.

[[record]]
compound = "Cc1nn2c(-c3ccc(F)cc3)c(/C=C/C(O)CC(O)CC(=O)O)c(C3CC3)nc2c1-c1ccccc1 (centres unmarked)"
experimental_result = 0


Name the recorded mortality at 168 h of the item Cc1cc2nc(C3CC3)c(/C=C/C(O)CC(O)CC(=O)O)c(-c3ccc(F)cc3)n2n1 (centres unmarked) in your answer.
0

* * *

Items are presented alongside their recorded Relative activities by Test A.
System: cholesterol biosynthesis
Experiment: Test A: Inhibition of cholesterol biosynthesis from acetate in vitro
Format: biochemical, male Wistar rat
Conditions: relative to CS-514 = 1 (Test A)

These solved cases illustrate the format of a correct answer.
[[record]]
compound = "CC(C)c1nc2c3c(nn2c(-c2ccc(F)cc2)c1/C=C/C(O)CC(O)CC(=O)O)CCCC3 (centres unmarked)"
target_under_test = "cholesterol biosynthesis"
experimental_result = 0.13

[[record]]
compound = "Cc1nn2c(-c3ccc(F)cc3)c(/C=C/C(O)CC(O)CC(=O)O)c(C3CC3)nc2c1C (centres unmarked)"
target_under_test = "cholesterol biosynthesis"
experimental_result = 0.29

[[record]]
compound = "Cc1cc2nc(C3CC3)c(/C=C/C(O)CC(O)CC(=O)O)c(-c3ccc(F)cc3)n2n1 (centres unmarked)"
target_under_test = "cholesterol biosynthesis"
experimental_result = 0.39


Name the recorded Relative activities by Test A of the item CC(C)c1cc2nc(C3CC3)c(/C=C/C(O)CC(O)CC(=O)O)c(-c3ccc(F)cc3)n2n1 (centres unmarked) in your answer.
0.09

Name the recorded Relative activities by Test A of the item CC(C)c1nc2cc(C(C)(C)C)nn2c(-c2ccc(F)cc2)c1/C=C/C(O)CC(O)CC(=O)O (centres unmarked) in your answer.
0.09

* * *

Items are presented alongside their recorded Relative activities by Test A.
Tested on: cholesterol biosynthesis
Test: Test A: Inhibition of cholesterol biosynthesis from acetate in vitro
Type: biochemical, male Wistar rat
Conditions: relative to CS-514 = 1 (Test A)
Number only, no unit.

These solved cases illustrate the format of a correct answer.
[[record]]
molecule = "Cc1nn2c(-c3ccc(F)cc3)c(/C=C/C(O)CC(O)CC(=O)O)c(C3CC3)nc2c1-c1ccccc1 (stereo not shown) [Compound I-5-6]"
value_type = "Relative activities by Test A"
experimental_result = 0.75

[[record]]
molecule = "CC(C)c1nc2cc(-c3ccco3)nn2c(-c2ccc(F)cc2)c1/C=C/C(O)CC(O)CC(=O)O (stereo not shown) [Compound I-5-7]"
value_type = "Relative activities by Test A"
experimental_result = 0.20

[[record]]
molecule = "CC(C)c1nc2cc(-c3ccccc3)nn2c(-c2ccc(F)cc2)c1/C=C/C(O)CC(O)CC(=O)O (stereo not shown) [Compound I-5-3]"
value_type = "Relative activities by Test A"
experimental_result = 0.27


// next item, Relative activities by Test A requested
Name the recorded Relative activities by Test A of the item Cc1cc2nc(C(C)C)c(/C=C/C(O)CC(O)CC(=O)O)c(-c3ccc(F)cc3)n2n1 (stereo not shown) [Compound I-5-1] in your answer.
0.64

This collection of values is drawn from patent US5055472A.
